The reported numbers originate from ChEMBL document CHEMBL1921795.

Item-by-item account of Activity
target: Metabotropic glutamate receptor 4 (Rattus norvegicus); assay: Positive allosteric modulation of rat mGlu4 receptor assessed as potentiation of glutamate-induced thallium flux relative to (-)-PHCCC; parameters: concentration or dose not given beside the values
Quick reminder: number only, in %, skip the unit.

Example compounds with recorded Activity:
{"columns": ["COMPOUND", "Activity [%]"],
 "data": [
  ["O=C(Nc1ccc(N2C(=O)c3ccccc3C2=O)c(Cl)c1)c1ccccn1", 132],
  ["O=C(Nc1ccc(N2C(=O)[C@@H]3[C@H](C2=O)[C@H]2C=C[C@@H]3CC2)c(Cl)c1)c1ccccn1", 122],
  ["O=C(Nc1ccc(N2S(=O)(=O)c3ccccc3S2(=O)=O)cc1)c1nccs1", 127]
]}

Now examine the next entry.
Q: Query: Activity; subject: CC1(c2ccccc2)CC(=O)N(c2ccc(NC(=O)c3ccccn3)cc2Cl)C1=O (racemic)
Result: 131
